biological target: UniProtKB P29477; experiment: Oxyhemoglobin NO capture assay with purified NOS; assay type: biochemical; conditions: ratio Ki iNOS / Ki rat nNOS, Table 9
# cutoff 50 applies to i/n selectivity; >= gives criterion met, < gives criterion not met

# molecule, measured_on, class
records = [
    ("Cc1cc(N)nc(CCc2cc(C#N)cc(N(C)CCc3cccc(F)c3)c2)c1 [Compound 21d]", "UniProtKB P29477", "criterion not met"),
    ("Cc1cc(N)nc(CCc2cc(F)cc(N3CCNCC3)c2)c1 [Compound 23h]", "UniProtKB P29477", "criterion met"),
    ("Cc1cc(N)nc(CCc2cc(F)cc(NCc3cccc(Cl)c3)c2)c1 [Compound 23f]", "UniProtKB P29477", "criterion met"),
    ("Cc1cc(N)nc(CCc2cc(F)cc(NCc3cccnc3)c2)c1 [Compound 23g]", "UniProtKB P29477", "criterion not met"),
    ("Cc1cc(N)nc(CCc2cccc(N(C)CCN)c2)c1 [Compound 10c]", "UniProtKB P29477", "criterion not met"),
    ("Cc1cc(N)nc(CCc2cc(C#N)cc(N(C)CCNC(C)C)c2)c1 [Compound 21b]", "UniProtKB P29477", "criterion met"),
    ("CCN(CCNC)c1cc(F)cc(CCc2cc(C)cc(N)n2)c1 [Compound 23d]", "UniProtKB P29477", "criterion met"),
    ("Cc1cc(N)nc(CCc2cccc(NCCN(C)C)c2)c1 [Compound 10b]", "UniProtKB P29477", "criterion not met"),
    ("CCNCCN(C)c1cc(F)cc(CCc2cc(C)cc(N)n2)c1 [Compound 23b]", "UniProtKB P29477", "criterion met"),
]
